Source: patent US10925971B2

# Test target: T1, monkey PRLR on HEK293/mfPRLR cells (Macaca fascicularis, UniProt A0A2K5WXK1)
# T1 construct: HA; expressed in transfected cells; host or cells: HEK293
# T1 sequence (A0A2K5WXK1 25-619): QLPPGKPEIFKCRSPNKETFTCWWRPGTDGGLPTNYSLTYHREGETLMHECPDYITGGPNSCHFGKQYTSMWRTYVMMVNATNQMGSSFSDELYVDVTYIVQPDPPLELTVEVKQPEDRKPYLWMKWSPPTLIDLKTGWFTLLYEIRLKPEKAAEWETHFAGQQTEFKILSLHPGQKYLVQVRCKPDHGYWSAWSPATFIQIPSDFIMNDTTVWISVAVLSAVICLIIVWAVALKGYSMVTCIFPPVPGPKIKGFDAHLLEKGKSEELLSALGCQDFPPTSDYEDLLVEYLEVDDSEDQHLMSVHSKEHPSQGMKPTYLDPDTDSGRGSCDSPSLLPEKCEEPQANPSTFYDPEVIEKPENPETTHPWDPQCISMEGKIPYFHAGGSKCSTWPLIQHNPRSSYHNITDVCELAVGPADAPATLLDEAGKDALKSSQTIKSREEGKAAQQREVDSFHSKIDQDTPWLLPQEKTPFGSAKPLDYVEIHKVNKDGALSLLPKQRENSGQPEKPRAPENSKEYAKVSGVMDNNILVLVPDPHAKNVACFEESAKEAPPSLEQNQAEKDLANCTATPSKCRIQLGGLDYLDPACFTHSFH
# Test protocol: FACS cell surface binding

Molecule	Display unit	FACS Cell Binding
H1H6792P: fully human anti-PRLR antibody, human IgG1 Fc; HCVR/LCVR SEQ ID NOs 130/138 (antibody, V domains shown) VH: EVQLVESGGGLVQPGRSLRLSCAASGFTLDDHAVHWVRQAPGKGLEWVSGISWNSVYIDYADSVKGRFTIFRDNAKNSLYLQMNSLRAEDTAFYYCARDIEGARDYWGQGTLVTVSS VL: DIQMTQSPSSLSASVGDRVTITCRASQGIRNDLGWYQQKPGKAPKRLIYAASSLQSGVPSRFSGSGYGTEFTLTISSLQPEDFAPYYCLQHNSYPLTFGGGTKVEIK	Fold Above Background	28
H1H6762P: fully human anti-PRLR antibody, human IgG1 Fc; HCVR/LCVR SEQ ID NOs 2/10 (antibody, V domains shown) VH: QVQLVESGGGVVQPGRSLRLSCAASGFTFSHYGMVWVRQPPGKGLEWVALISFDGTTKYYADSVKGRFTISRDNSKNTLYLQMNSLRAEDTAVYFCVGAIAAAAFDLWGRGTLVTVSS VL: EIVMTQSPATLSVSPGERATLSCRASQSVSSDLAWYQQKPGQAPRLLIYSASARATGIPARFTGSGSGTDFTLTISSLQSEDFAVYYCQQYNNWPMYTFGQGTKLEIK	Fold Above Background	26
H1H6797P: fully human anti-PRLR antibody, human IgG1 Fc; HCVR/LCVR SEQ ID NOs 178/186 (antibody, V domains shown) VH: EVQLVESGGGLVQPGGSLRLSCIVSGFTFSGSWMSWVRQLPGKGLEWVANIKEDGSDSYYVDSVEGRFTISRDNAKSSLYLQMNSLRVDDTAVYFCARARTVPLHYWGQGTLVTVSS VL: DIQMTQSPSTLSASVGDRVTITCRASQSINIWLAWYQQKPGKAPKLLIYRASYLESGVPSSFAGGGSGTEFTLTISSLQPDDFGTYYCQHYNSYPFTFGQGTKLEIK	Fold Above Background	25
